Reported pIC50 values follow for various molecules
Tested on: 786-O (renal cell carcinoma) cells
Test: Cell viability (CellTiter Glo) assay, inhibition of 786-O cell proliferation
Type: cell-based
Settings: Homo sapiens, 786-0; 786-O cells, 72 hours, CellTiter Glo; read-out: IC50, inhibition of 786-O cell proliferation
pIC50: −log10 of the molar value.

MOLECULE	pIC50
CC1(C)C(=O)N(c2ccc(N3CCOCC3)cc2)c2nc(COC(=N)N3CCC[C@@H]3C(F)(F)F)nc(NCC(F)F)c21	> 7.00
N=C(OCc1nc(N)nc(Nc2ccc(Oc3ccccc3)cc2)n1)N1CCCC12CCOCC2	5.30 to 6.30
C[C@@H]1CN(c2ncc(N3C(=O)C4(CCCC4)c4c(N)nc(COC(=N)N5CCOC[C@@H]5C(F)(F)F)nc43)cn2)C[C@H](C)O1 [Compound E104B]	> 7.00
N=C(OCc1nc(Nc2ccc(Oc3ccccc3)cc2)c2cc[nH]c2n1)N1CCCC(F)(F)C1	6.30 to 7.00
CC(C)N(CC(F)(F)F)C(=N)OCc1ncc2c(n1)N(C1CCC(Oc3ccccn3)CC1)C(=O)C21CC1 (stereo not drawn)	5.30 to 6.30
CNc1nc(COC(=N)N2CC(F)(F)C[C@@H]2C)nc2c1C(C)(C)C(=O)N2c1ccc(N2CCOCC2)cc1	6.30 to 7.00

###

System: 786-O (renal cell carcinoma) cells
Assay: Cell viability (CellTiter Glo) assay, inhibition of 786-O cell proliferation
Assay type: cell-based
Settings: Homo sapiens, 786-0; 786-O cells, 72 hours, CellTiter Glo; read-out: IC50, inhibition of 786-O cell proliferation
Quick reference: IC50 of the listed items.
RECORDED_ENDPOINT: IC50

COMPOUND	ASSAY_VALUE
CNc1nc(COC(=N)N2CCC[C@H]2C(F)(F)F)nc2c1C1(CCCC1)C(=O)N2c1cnc(N2C[C@@H](C)O[C@@H](C)C2)nc1 (relative stereo)	100 to 500 nM
CCN(CC)c1ncc(N2C(=O)C3(CCCC3)c3c(N)nc(COC(=N)N4CCC[C@@H]4C(F)(F)F)nc32)cn1	< 100 nM
CC1(C)CN(c2ccc(Oc3ccccc3)cc2)c2nc(COC(=N)N3CCC(F)(F)CC3)nc(N)c21 [Compound E2]	< 100 nM
CCCCCCOc1ccc(N2C(=O)C3(CC3)c3cnc(COC(=N)N(CC(F)(F)F)C(C)C)nc32)cc1	< 100 nM
CNc1nc(COC(=N)N2CCC[C@@H]2C(F)(F)F)nc2c1C(C)(C)C(=O)N2c1cnc2c(C(C)C)cnn2c1	< 100 nM
CNc1nc(COC(=N)N2CC(F)(F)C[C@H]2C)nc2c1C(C)(C)C(=O)N2c1ccc(N2CCOCC2)cc1	100 to 500 nM
C#CCOc1cccc(Oc2ccc(Nc3nc(N)nc(COC(=N)N(CC)c4ccccn4)n3)cc2)c1	< 100 nM
CNc1nc(COC(=N)N2CCC[C@@H]2C(F)(F)F)nc2c1C1(CCCC1)C(=O)N2c1cnc(N2CCC(F)(F)C2)nc1	< 100 nM

###

Measured pIC50 accompanies every entry in the list below.
System: 786-O (renal cell carcinoma) cells
Experiment: Cell viability (CellTiter Glo) assay, inhibition of 786-O cell proliferation
Assay type: cell-based
Conditions: Homo sapiens, 786-0; 786-O cells, 72 hours, CellTiter Glo; read-out: IC50, inhibition of 786-O cell proliferation
pIC50: −log10 of the molar value.

COMPOUND	pIC50
CNc1nc(COC(=N)N2CC(F)(F)C[C@H]2C)nc2c1C(C)(C)C(=O)N2c1ccc(N2C[C@@H](C)O[C@@H](C)C2)nc1 [Compound E115]	6.30 to 7.00
CC1(NC(=N)OCc2nc(N)nc(Nc3ccc(Oc4ccccc4)cc3)n2)CC1 [Compound F28]	6.30 to 7.00
CN1CCN(C(=N)OCc2nc(Nc3ccc(Oc4ccccc4)cc3)c3cc[nH]c3n2)CC1=O [Compound D7]	5.30 to 6.30
CNc1nc(COC(=N)N2CCCC2C(F)(F)F)nc2c1C(C)(C)CN2c1ccc(N2CCOCC2)cc1OC (stereo not shown) [Compound E15]	> 7.00

###

Tested on: 786-O (renal cell carcinoma) cells
Assay: Cell viability (CellTiter Glo) assay, inhibition of 786-O cell proliferation
Format: cell-based
Conditions: Homo sapiens, 786-0; 786-O cells, 72 hours, CellTiter Glo; read-out: IC50, inhibition of 786-O cell proliferation
Listing of entries alongside the reported IC50.

COMPOUND	IC50
CC1(C)C(=O)N(c2ccc(N3CCCCC3)cc2)c2nc(COC(=N)N3CCC[C@@H]3C(F)(F)F)nc(NCC(F)(F)F)c21	< 0.1 µM
C[C@@H]1CN(c2ccc(N3C(=O)C(C)(C)c4c(N)nc(COC(=N)N5CCC[C@@H]5C(F)(F)F)nc43)cn2)C[C@H](C)O1	< 0.1 µM
CCN(C(=N)OCc1nc(N)nc(Nc2ccc(Oc3ccccc3)cc2)n1)c1ccncc1	< 0.1 µM
COc1cc(N2C[C@@H](C)O[C@@H](C)C2)ncc1N1C(=O)C(C)(C)c2c(N)nc(COC(=N)N3CCC[C@@H]3C(F)(F)F)nc21	0.1 to 0.5 µM
CC(C)N(CC(F)(F)F)C(=N)OCc1ncc2c(n1)N(c1ccc(O)cc1)C(=O)C21CC1	> 5 µM
N=C(OCc1nc(NC2CC2)c2c(n1)N(c1cnc(N3CCC(F)(F)CC3)nc1)C(=O)C21CCCC1)N1CCC[C@@H]1C(F)(F)F	< 0.1 µM
N=C(OCc1nc(NC2CCC2)c2c(n1)N(c1ccc(N3CCOCC3)cc1)C(=O)C21CCCC1)N1CCC[C@@H]1C(F)(F)F	< 0.1 µM
C[C@@H]1CN(c2ccc(N3C(=O)C(C)(C)c4c(N)nc(COC(=N)N(CC(F)(F)F)C5CC5)nc43)cn2)C[C@H](C)O1	0.1 to 0.5 µM
CCN(CC(F)(F)F)C(=N)OCc1cc(Nc2ccc(Oc3ccccc3)cc2)ncn1	0.5 to 5 µM
N=C(OCc1nc(N)c2c(n1)N(c1cnc(N3CCC(F)(F)CC3)nc1)C(=O)C21CCCC1)N1CCC[C@@H]1C(F)(F)F	< 0.1 µM
CC(C)N(CC(F)(F)F)C(=N)OCc1ncc(C2=CCOCC2)c(Nc2ccc(N3CCOCC3)nc2)n1	0.5 to 5 µM
CNc1nc(COC(=N)N2CCC[C@H]2C(F)(F)F)nc2c1C(C)(C)CN2c1ccc(N2CCOCC2)cc1OC	< 0.1 µM
COc1cc(N2CCOCC2)ccc1N1CC(C)(C)c2c(NCC(F)(F)F)nc(COC(=N)N3CCC[C@@H]3C(F)(F)F)nc21	< 0.1 µM
CNc1nc(COC(=N)N2CCC[C@@H]2C(F)(F)F)nc2c1C1(CCCC1)C(=O)N2c1cnc(N2CC(F)(F)C2)nc1	< 0.1 µM
CC(C)N(CC(F)(F)F)C(=N)OCc1ncc2c(n1)N(c1ccc(N3CCCCC3)nc1)C(=O)C21CC1	0.1 to 0.5 µM
CC(C)/N=C(/NC(C)C)OCc1nc(N)nc(Nc2ccc(Oc3ccccc3)cc2)n1	0.1 to 0.5 µM
C[C@@H]1CN(c2ccc(N3C(=O)C4(CCCC4)c4c(N)nc(COC(=N)N5CCC[C@@H]5C(F)(F)F)nc43)cc2F)C[C@H](C)O1	< 0.1 µM
CNc1nc(COC(=N)N(CC(F)(F)F)C(C)C)nc2c1C(C)(C)C(=O)N2c1ccc(OC2CCCCC2)nc1	< 0.1 µM
N=C(OCc1ncc2c(n1)N(c1ccc(Oc3ccccc3)cc1)C(=O)C21CC1)N1CCCCC1C(F)(F)F (centres unmarked)	0.1 to 0.5 µM
CNc1nc(COC(=N)N2CCC[C@@H]2C(F)(F)F)nc2c1C(C)(C)C(=O)N2c1cc(F)c2c(cnn2C(C)C)c1	< 0.1 µM
[2H]C([2H])(OC(=N)N1CCC(F)(F)CC1)c1nc(N)nc(Nc2ccc(Oc3ccccc3)cc2)n1	< 0.1 µM
[2H]C([2H])(OC(=N)N1CCCCC1C(F)(F)F)c1nc(N)c2c(n1)N(c1ccc(OC3CCCCC3)cc1)CC2(C)C (centres unmarked)	< 0.1 µM
C[C@@H]1CN(c2ncc(N3C(=O)C(C)(C)c4c(N)nc(COC(=N)N5CCC[C@@H]5C(F)(F)F)nc43)cc2F)C[C@H](C)O1	< 0.1 µM

###

Test system: 786-O (renal cell carcinoma) cells
Test: Cell viability (CellTiter Glo) assay, inhibition of 786-O cell proliferation
Format: cell-based
Settings: Homo sapiens, 786-0; 786-O cells, 72 hours, CellTiter Glo; read-out: IC50, inhibition of 786-O cell proliferation
RECORDED_ENDPOINT: IC50

MOLECULE	ASSAY_VALUE
[2H]C([2H])([2H])Nc1nc(COC(=N)N2CCC[C@@H]2C(F)(F)F)nc2c1C(C)(C)C(=O)N2c1ccc(N2C[C@@H](C)O[C@@H](C)C2)nc1	0.1 to 0.5 µM
CNc1nc(COC(=N)N2CCCC2C(F)(F)F)nc2c(-c3ccc(N4CCOCC4)cc3)csc12 (centres unmarked)	< 0.1 µM
CN(C)C(=N)OCc1nc(Nc2ccc(Oc3ccccc3)cc2)c2cc[nH]c2n1	0.5 to 5 µM
COc1cc(F)ccc1N1CC(C)(C)c2c(NC3CC3)nc(COC(=N)N3CCC[C@@H]3C(F)(F)F)nc21	< 0.1 µM
CCN1CCN(C(=N)OCc2nc(N)nc(Nc3ccc(Oc4ccccc4)cc3)n2)C2(CC2)C1=O	0.1 to 0.5 µM
